molecular target: Hid-FAM (5-carboxyflourescein-conjugated AVPFAK(5-FAM)K); assay: Fluorescence polarization affinity measurement with Hid-FAM probe; format: binding; conditions: 5 nM Hid-FAM, apparent Kd from EC50
pKd: −log10 of the molar value.

| molecule | pKd |
| --- | --- |
| MLBIR-Q: C-terminally truncated version of ML-IAP-BIR with the same number of amino acids as MLXBIR3 and MLXBIR3SG (protein, left off: small tags and cut ends) TEEEEEEGAGATLSRGPAFPGMGSEELRLASFYDWPLTAEVPPELLAAAGFFHTGHQDKVRCFFCYGGLQSWKRGDDPWTEHAKWFPSCQFLLRSKGRDFVHSVQETHSQ | 7.70 |
| ML-IAP-BIR: wild-type ML-IAP BIR domain construct, amino acids 63–179 of accession number BIR7_HUMAN (protein, left off: small tags and cut ends) TEEEEEEGAGATLSRGPAFPGMGSEELRLASFYDWPLTAEVPPELLAAAGFFHTGHQDKVRCFFCYGGLQSWKRGDDPWTEHAKWFPSCQFLLRSKGRDFVHSVQETHSQLLGSWDP | 7.68 |
| XIAP-BIR3: third BIR domain of XIAP (residues 252–348) (protein, left off: small tags and cut ends) NSTNLPRNPSMADYEARIFTFGTWIYSVNKEQLARAGFYALGEGDKVKCFHCGGGLTDWKPSEDPWEQHAKWYPGCKYLLEQKGQEYINNIHLTHSL | 6.98 |
| MLXBIR3: ML-IAP-BIR in which amino acids 160–179 were replaced with amino acids 336–348 of XIAP-BIR3 (protein, left off: small tags and cut ends) TEEEEEEGAGATLSRGPAFPGMGSEELRLASFYDWPLTAEVPPELLAAAGFFHTGHQDKVRCFFCYGGLQSWKRGDDPWTEHAKWFPSCQFLLRSKGQEYINNIHLTHSL | 7.68 |
